Experiment: Stability and protonation constants of Zn(II)-complexes (pH-potentiometry)
Format: physicochemical
Settings: 0.15 M NaCl, 25 °C
Experimental: The protonation constants of ligands, the stability and protonation constants of Ca(II)‐ and Zn(II)‐complexes formed with rac‐L1, ent‐L1, rac‐L2, and ent‐L2 ligands were determined by pH‐potentiometric titration. The metal‐to‐ligand concentration ratio was 1:1 (the concentration of the ligand was generally 0.002 M). The protonation constants of the Cu(II)‐ and Gd(III)‐complexes were determined using pH‐potentiometry by titrating the pre‐prepared complexes from pH 2.0 to 12.0 with 0.2 M NaOH. […]
endpoint.label: logKZnHL

Lookup: Which logKZnHL value is on record for O=C(O)CCC(C(=O)O)N1CCN(C(CCC(=O)O)C(=O)O)Cc2cccc(n2)CN(C(CCC(=O)O)C(=O)O)CC1 (racemic) [rac‐L1] ?
Found: 5.24 (4)

Lookup: Now this one: O=C(O)CCC(C(=O)O)N1CCN(C(CCC(=O)O)C(=O)O)Cc2cccc(n2)CN(C(CCC(=O)O)C(=O)O)CC1 (stereo not drawn) [ent‐L1]
Found: 5.26 (2)

Lookup: Now this one: O=C(CCC(C(=O)O)N1CCN(C(CCC(=O)NCC(O)CO)C(=O)O)Cc2cccc(n2)CN(C(CCC(=O)NCC(O)CO)C(=O)O)CC1)NCC(O)CO (stereo not drawn) [ent‐L2]
Found: 3.27 (3)

Lookup: Now this one: O=C(CCC(C(=O)O)N1CCN(C(CCC(=O)NCC(O)CO)C(=O)O)Cc2cccc(n2)CN(C(CCC(=O)NCC(O)CO)C(=O)O)CC1)NCC(O)CO (racemic) [rac‐L2]
Found: 3.77 (3)

Recorded values, source paper PMC11984905.
